- Tested on: MS2 coat protein
- test.details: apparent KD of MS2 coat protein; designed switch direction (-1 OFF switch, 1 ON switch): -1; higher = weaker reporter binding
- condition.context: input ligand: none
observed.property: apparent KD of MS2 coat protein (nM)
Just the number in nM, nothing appended.

Form field apparent KD of MS2 coat protein for item UGAGUGCUGCGAGGAUAUACAUGAGGAUCACCCAUGUAAACGUGUGAGGCUUUGCCUCACACGAUGUAGAAGGCGCAGUACUCU [JL ENG2 1.05] (Eterna round: R96, puzzle: Exclusion NG 2) on MS2 coat protein: 14

Item CGGCACCGAGGAUAUACAUGAGGAUCACCCAUGUUUGUUGGGCCCUUAAGAUCUACGUGUAGAAGGUGGGUCGA [Edaribi] (Eterna round: R96, puzzle: Exclusion 3) was tested on MS2 coat protein; the reported apparent KD of MS2 coat protein is 173

Param item: UCCACGUAAGGAUAUGGUCAUUGUGACUUGAGGAUCACCCAAGUUGUGAGCUUCCGUCACCCAGAAGGUGCAUGGU [Oratin] (Eterna round: R97, puzzle: Exclusion 5) ; param system: MS2 coat protein; output apparent KD of MS2 coat protein: 99.9

Data origin, for the record: the supplement of paper PMC9170038
